- Test system: FL-geph
- Assay Summary: µSPOT peptide microarray binding assay with full-length geph
- Applied Conditions: µSPOT peptide microarray, GlyRβ full positional scan, intensity normalised to wild-type sequence DLRSNDFSIVGSLPR (=1)
Fl-geph Binding Intensity [norm.] by entry:
// units = norm.; emit number, no label

>  <Input Sequence>
DLRTNDFSIVGSLPR [GlyRβ_Full_Positional_Scan_076]

>  <Recorded Measurement>
1.09

$$$$
>  <Input Sequence>
DLRSNDFSINGSLPR [GlyRβ_Full_Positional_Scan_199, GlyR β 414-428 variant V423N]

>  <Recorded Measurement>
0.79

$$$$
>  <Input Sequence>
DIRSNDFSIVGSLPR [GlyRβ_Full_Positional_Scan_023]

>  <Recorded Measurement>
1.12

$$$$
>  <Input Sequence>
QLRSNDFSIVGSLPR [GlyRβ_Full_Positional_Scan_020]

>  <Recorded Measurement>
1.16

$$$$
>  <Input Sequence>
DLFSNDFSIVGSLPR [GlyRβ_Full_Positional_Scan_047]

>  <Recorded Measurement>
1.29

$$$$

GET /values?readout=Fl-geph Binding Intensity [norm.]&item= PLRSNDFSIVGSLPR [GlyRβ_Full_Positional_Scan_005] 1.16

GET /values?readout=Fl-geph Binding Intensity [norm.]&item= DLRSNDDSIVGSLPR [GlyRβ_Full_Positional_Scan_130, GlyR β 414-428 variant F420D] 0.38

GET /values?readout=Fl-geph Binding Intensity [norm.]&item= DLRYNDFSIVGSLPR [GlyRβ_Full_Positional_Scan_069] 0.83

GET /values?readout=Fl-geph Binding Intensity [norm.]&item= DLRSNDLSIVGSLPR [GlyRβ_Full_Positional_Scan_124, GlyR β 414-428 variant F420L] 0.69

---

- Tested on: native geph
- Assay Summary: µSPOT peptide microarray binding assay with native geph from mouse brain lysate
- Applied Conditions: µSPOT peptide microarray, GlyRβ full positional scan, native geph from mouse brain lysate; intensity normalised to wild-type sequence DLRSNDFSIVGSLPR (=1)
Native geph Binding Intensity [norm.] by entry:
// units = norm.; emit number, no label

Here is how some sequences turned out for Native geph Binding Intensity [norm.].
>  <Input Sequence>
DLRSNDFSIVGSLPR [GlyRβ_Full_Positional_Scan_099]

>  <Study Target>
native geph

>  <Native geph Binding Intensity [norm.], norm.>
1

$$$$
>  <Input Sequence>
DLRSNDFYIVGSLPR [GlyRβ_Full_Positional_Scan_149, GlyR β 414-428 variant S421Y]

>  <Study Target>
native geph

>  <Native geph Binding Intensity [norm.], norm.>
0.27

$$$$
>  <Input Sequence>
DLRSFDFSIVGSLPR [GlyRβ_Full_Positional_Scan_087]

>  <Study Target>
native geph

>  <Native geph Binding Intensity [norm.], norm.>
0.55

$$$$
>  <Input Sequence>
DLRSNAFSIVGSLPR [GlyRβ_Full_Positional_Scan_101]

>  <Study Target>
native geph

>  <Native geph Binding Intensity [norm.], norm.>
0.77

$$$$
>  <Input Sequence>
DQRSNDFSIVGSLPR [GlyRβ_Full_Positional_Scan_040]

>  <Study Target>
native geph

>  <Native geph Binding Intensity [norm.], norm.>
1.16

$$$$

Reported Native geph Binding Intensity [norm.] for native geph, given DLRSNDFSIVYSLPR [GlyRβ_Full_Positional_Scan_209, GlyR β 414-428 variant G424Y] ? 0.2

---

- Tested on: native geph
- Assay Summary: µSPOT peptide microarray binding assay with native geph from mouse brain lysate
- Applied Conditions: µSPOT peptide microarray, GlyRβ full positional scan, native geph from mouse brain lysate; intensity normalised to wild-type sequence DLRSNDFSIVGSLPR (=1)
Measurement Kind: Native geph Binding Intensity [norm.] (norm.)
// units = norm.; emit number, no label

Here is how some sequences turned out for Native geph Binding Intensity [norm.].
>  <Input Sequence>
DYRSNDFSIVGSLPR [GlyRβ_Full_Positional_Scan_029]

>  <Output Unit>
norm.

>  <Native geph Binding Intensity [norm.]>
0.73

$$$$
>  <Input Sequence>
DLRSDDFSIVGSLPR [GlyRβ_Full_Positional_Scan_090]

>  <Output Unit>
norm.

>  <Native geph Binding Intensity [norm.]>
0.98

$$$$
>  <Input Sequence>
DLRSNDFSIEGSLPR [GlyRβ_Full_Positional_Scan_191, GlyR β 414-428 variant V423E]

>  <Output Unit>
norm.

>  <Native geph Binding Intensity [norm.]>
0.53

$$$$
>  <Input Sequence>
DLRSNDFSIVFSLPR [GlyRβ_Full_Positional_Scan_207, GlyR β 414-428 variant G424F]

>  <Output Unit>
norm.

>  <Native geph Binding Intensity [norm.]>
0.22

$$$$

GET /values?readout=Native geph Binding Intensity [norm.]&item= DLRPNDFSIVGSLPR [GlyRβ_Full_Positional_Scan_065] 0.71

GET /values?readout=Native geph Binding Intensity [norm.]&item= DHRSNDFSIVGSLPR [GlyRβ_Full_Positional_Scan_033] 0.98

GET /values?readout=Native geph Binding Intensity [norm.]&item= NLRSNDFSIVGSLPR [GlyRβ_Full_Positional_Scan_019] 1.28

GET /values?readout=Native geph Binding Intensity [norm.]&item= DLWSNDFSIVGSLPR [GlyRβ_Full_Positional_Scan_048] 1.17

GET /values?readout=Native geph Binding Intensity [norm.]&item= DLFSNDFSIVGSLPR [GlyRβ_Full_Positional_Scan_047] 1.18

GET /values?readout=Native geph Binding Intensity [norm.]&item= DLRSNDFLIVGSLPR [GlyRβ_Full_Positional_Scan_144, GlyR β 414-428 variant S421L] 0.2

GET /values?readout=Native geph Binding Intensity [norm.]&item= DLRSNDFSIVLSLPR [GlyRβ_Full_Positional_Scan_204, GlyR β 414-428 variant G424L] 0.23

GET /values?readout=Native geph Binding Intensity [norm.]&item= DLRYNDFSIVGSLPR [GlyRβ_Full_Positional_Scan_069] 0.93

GET /values?readout=Native geph Binding Intensity [norm.]&item= DLRSNDFSNVGSLPR [GlyRβ_Full_Positional_Scan_179, GlyR β 414-428 variant I422N] 0.42

GET /values?readout=Native geph Binding Intensity [norm.]&item= DWRSNDFSIVGSLPR [GlyRβ_Full_Positional_Scan_028] 0.6

---

- System: gephE
- Assay Summary: µSPOT peptide microarray binding assay with recombinant gephE
- Applied Conditions: overlapping GlyR β peptide library on µSPOT array; 50 nM gephE; anti-gephyrin 3B11/HRP chemiluminescence; normalized to most prominent spot; n = 2 array-internal duplicate
gephE Binding Intensity [norm.] by entry:

Here is how some sequences turned out for gephE Binding Intensity [norm.].
>  <Input Sequence>
GKPIEVNNGLGKPQAKNKKP [Glycine receptor subunit beta_031, GlyR β residues 439-458]

>  <Recorded Measurement>
0.036 norm.

$$$$
>  <Input Sequence>
VGETRCKKVCTSKSDLRSND [Glycine receptor subunit beta_018, GlyR β residues 400-419]

>  <Recorded Measurement>
0.011 norm.

$$$$
>  <Input Sequence>
VVQVMLNNPKRVEAEKARIA [Glycine receptor subunit beta_001, GlyR β residues 349-368]

>  <Recorded Measurement>
0.017 norm.

$$$$

GET /values?readout=gephE Binding Intensity [norm.]&item= CTSKSDLRSNDFSIVGSLPR [Glycine receptor subunit beta_021, GlyR β residues 409-428] 0.645 norm.

GET /values?readout=gephE Binding Intensity [norm.]&item= TLQVGETRCKKVCTSKSDLR [Glycine receptor subunit beta_017, GlyR β residues 397-416] 0.016 norm.

---

- Test system: native geph
- Assay Summary: µSPOT peptide microarray binding assay with native geph from mouse brain lysate
- Applied Conditions: overlapping GlyR β peptide library on µSPOT array; 3% mouse brain lysate; normalized to most prominent spot; n = 2 array-internal duplicate
Lab note - cut at 0.09 norm. for Native geph Binding Intensity [norm.]: true if strictly below, false if not.

Some entries whose results are on file:
>  <Input Sequence>
TLQVGETRCKKVCTSKSDLR [Glycine receptor subunit beta_017, GlyR β residues 397-416]

>  <Classification>
true

$$$$
>  <Input Sequence>
KSDLRSNDFSIVGSLPRDFE [Glycine receptor subunit beta_022, GlyR β residues 412-431]

>  <Classification>
false

$$$$
>  <Input Sequence>
GKPIEVNNGLGKPQAKNKKP [Glycine receptor subunit beta_031, GlyR β residues 439-458]

>  <Classification>
true

$$$$
>  <Input Sequence>
SIVGSLPRDFELSNYDCYGK [Glycine receptor subunit beta_025, GlyR β residues 421-440]

>  <Classification>
false

$$$$
>  <Input Sequence>
LGKPQAKNKKPPPAKPVIPT [Glycine receptor subunit beta_034, GlyR β residues 448-467]

>  <Classification>
true

$$$$

Does the reported Native geph Binding Intensity [norm.] of the following sequence sit strictly below 0.09 norm.? KRVEAEKARIAKAEQADGKG [Glycine receptor subunit beta_004] false

Does the reported Native geph Binding Intensity [norm.] of the following sequence sit strictly below 0.09 norm.? SNYDCYGKPIEVNNGLGKPQ [Glycine receptor subunit beta_029, GlyR β residues 433-452] false

Does the reported Native geph Binding Intensity [norm.] of the following sequence sit strictly below 0.09 norm.? DCYGKPIEVNNGLGKPQAKN [Glycine receptor subunit beta_030, GlyR β residues 436-455] false
